Kindly supply the reported Blocking fold after conjugation (+20K) values for the records listed here.
biological target: T1, CD3 (antigen of the anti-CD3 antibody, coated in the ELISA of Examples 1-3) (Homo sapiens (Human), UniProt P07766 23-126); test: binding activity of the conjugated mutant compared with the wild-type antibody (ELISA as in Example 1)
T1 construct: also called antibody antigen
T1 sequence (P07766 23-126 limits assumed, form in doubt): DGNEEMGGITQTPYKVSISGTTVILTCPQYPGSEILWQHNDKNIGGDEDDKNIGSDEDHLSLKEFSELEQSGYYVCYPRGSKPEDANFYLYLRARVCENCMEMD

Use these answered entries as a reference point.
Task item: Read the entry anti-CD3 antibody mutant VH-F112C conjugated with Molecule I (+20K) (antibody, V domains shown, Cys 112 conjugated with Molecule I (+20K), also called VH-112 F112 (+20K)) VH: EVQLVESGGGLVQPGGSLRLSCAASGFTFSTYAMNWVRQAPGKGLEWVGRIRSKYNNYATYYADSVKDRFTISRDDSKNSLYLQMNSLKTEDTAVYYCARHGNFGNSYVSWCAYWGQGTLVTVSS VL: QTVVTQEPSLTVSPGGTVTLTCRSSTGAVTTSNYANWVQQKPGQAPRGLIGGTNKRAPGVPARFSGSLLGDKAALTLLGAQPEDEAEYFCALWYSNLWVFGGGTKLTVL and write its reported Blocking fold after conjugation (+20K).
Reply: 4 fold

Task item: Give a short answer stating reported Blocking fold after conjugation (+20K) for anti-CD3 antibody mutant VL-N96C conjugated with Molecule I (+20K) (antibody, V domains shown, Cys 96 conjugated with Molecule I (+20K), also called VL-96 N96 (+20K)) VH: EVQLVESGGGLVQPGGSLRLSCAASGFTFSTYAMNWVRQAPGKGLEWVGRIRSKYNNYATYYADSVKDRFTISRDDSKNSLYLQMNSLKTEDTAVYYCARHGNFGNSYVSWFAYWGQGTLVTVSS VL: QTVVTQEPSLTVSPGGTVTLTCRSSTGAVTTSNYANWVQQKPGQAPRGLIGGTNKRAPGVPARFSGSLLGDKAALTLLGAQPEDEAEYFCALWYSCLWVFGGGTKLTVL .
Reply: 2 fold

Task item: Quote Blocking fold after conjugation (+20K) reported for anti-CD3 antibody mutant VL-N54C conjugated with Molecule I (+20K) (antibody, V domains shown, Cys 54 conjugated with Molecule I (+20K), also called VL-54 N54 (+20K)) VH: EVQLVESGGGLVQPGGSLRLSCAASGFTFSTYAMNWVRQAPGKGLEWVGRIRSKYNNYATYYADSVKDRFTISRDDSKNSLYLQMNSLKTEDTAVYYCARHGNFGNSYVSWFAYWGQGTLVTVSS VL: QTVVTQEPSLTVSPGGTVTLTCRSSTGAVTTSNYANWVQQKPGQAPRGLIGGTCKRAPGVPARFSGSLLGDKAALTLLGAQPEDEAEYFCALWYSNLWVFGGGTKLTVL please.
Reply: 12 fold

Task item: Look up and report measured Blocking fold after conjugation (+20K) for this entry: anti-CD3 antibody mutant VL-K55C conjugated with Molecule I (+20K) (antibody, V domains shown, Cys 55 conjugated with Molecule I (+20K), also called VL-55 K55 (+20K)) VH: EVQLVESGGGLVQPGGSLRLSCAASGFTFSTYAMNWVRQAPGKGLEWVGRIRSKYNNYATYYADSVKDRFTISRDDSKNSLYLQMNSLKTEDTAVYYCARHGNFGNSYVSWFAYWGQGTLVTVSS VL: QTVVTQEPSLTVSPGGTVTLTCRSSTGAVTTSNYANWVQQKPGQAPRGLIGGTNCRAPGVPARFSGSLLGDKAALTLLGAQPEDEAEYFCALWYSNLWVFGGGTKLTVL
Reply: 5 fold

Shift focus to the following entry.
Task item: Please report Blocking fold after conjugation (+20K) for the following binder: anti-CD3 antibody mutant VH-M34C conjugated with Molecule I (+20K) (antibody, V domains shown, Cys 34 conjugated with Molecule I (+20K), also called VH-34 M34 (+20K)) VH: EVQLVESGGGLVQPGGSLRLSCAASGFTFSTYACNWVRQAPGKGLEWVGRIRSKYNNYATYYADSVKDRFTISRDDSKNSLYLQMNSLKTEDTAVYYCARHGNFGNSYVSWFAYWGQGTLVTVSS VL: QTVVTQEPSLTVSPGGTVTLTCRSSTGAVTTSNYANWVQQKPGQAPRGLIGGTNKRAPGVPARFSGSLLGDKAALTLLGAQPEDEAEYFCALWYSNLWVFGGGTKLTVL
Reply: 5 fold
